- System: L-type calcium channel, dihydropyridine site (Cav1.2 alpha-1C) (Homo sapiens, UniProt Q13936)
- Method notes: Inhibition of Calcium Channel L-Type, Dihydropyridine at 10 µM in the Eurofins-Panlabs radioligand binding assay (Eurofins_assay_214600)
- Parameters: ligand concentration 0.1 nM, non-specific ligand with concentration 1 µM Nitrendipine, incubation time 90 min, incubation temperature 25 °C
- Assay setup: Wistar, rat, rat cerebral cortex preparation, probe [3H] Nitrendipine; compound concentration 10 uM; target entry is the homologue from another species
Measured attribute: inhibition at 90 min, 10 µM

Entry `O=C(O)[C@H]1[C@H](Cn2nnc3ccccc3c2=O)CC[C@@H]1C(=O)c1ccc(OCCC2CCOCC2)cc1` ; inhibition at 90 min, 10 µM = 0% (not active)

====

- System: L-type calcium channel, benzothiazepine site (Cav1.2 alpha-1C) (Homo sapiens)
- Sequence (Q13936 whole entry): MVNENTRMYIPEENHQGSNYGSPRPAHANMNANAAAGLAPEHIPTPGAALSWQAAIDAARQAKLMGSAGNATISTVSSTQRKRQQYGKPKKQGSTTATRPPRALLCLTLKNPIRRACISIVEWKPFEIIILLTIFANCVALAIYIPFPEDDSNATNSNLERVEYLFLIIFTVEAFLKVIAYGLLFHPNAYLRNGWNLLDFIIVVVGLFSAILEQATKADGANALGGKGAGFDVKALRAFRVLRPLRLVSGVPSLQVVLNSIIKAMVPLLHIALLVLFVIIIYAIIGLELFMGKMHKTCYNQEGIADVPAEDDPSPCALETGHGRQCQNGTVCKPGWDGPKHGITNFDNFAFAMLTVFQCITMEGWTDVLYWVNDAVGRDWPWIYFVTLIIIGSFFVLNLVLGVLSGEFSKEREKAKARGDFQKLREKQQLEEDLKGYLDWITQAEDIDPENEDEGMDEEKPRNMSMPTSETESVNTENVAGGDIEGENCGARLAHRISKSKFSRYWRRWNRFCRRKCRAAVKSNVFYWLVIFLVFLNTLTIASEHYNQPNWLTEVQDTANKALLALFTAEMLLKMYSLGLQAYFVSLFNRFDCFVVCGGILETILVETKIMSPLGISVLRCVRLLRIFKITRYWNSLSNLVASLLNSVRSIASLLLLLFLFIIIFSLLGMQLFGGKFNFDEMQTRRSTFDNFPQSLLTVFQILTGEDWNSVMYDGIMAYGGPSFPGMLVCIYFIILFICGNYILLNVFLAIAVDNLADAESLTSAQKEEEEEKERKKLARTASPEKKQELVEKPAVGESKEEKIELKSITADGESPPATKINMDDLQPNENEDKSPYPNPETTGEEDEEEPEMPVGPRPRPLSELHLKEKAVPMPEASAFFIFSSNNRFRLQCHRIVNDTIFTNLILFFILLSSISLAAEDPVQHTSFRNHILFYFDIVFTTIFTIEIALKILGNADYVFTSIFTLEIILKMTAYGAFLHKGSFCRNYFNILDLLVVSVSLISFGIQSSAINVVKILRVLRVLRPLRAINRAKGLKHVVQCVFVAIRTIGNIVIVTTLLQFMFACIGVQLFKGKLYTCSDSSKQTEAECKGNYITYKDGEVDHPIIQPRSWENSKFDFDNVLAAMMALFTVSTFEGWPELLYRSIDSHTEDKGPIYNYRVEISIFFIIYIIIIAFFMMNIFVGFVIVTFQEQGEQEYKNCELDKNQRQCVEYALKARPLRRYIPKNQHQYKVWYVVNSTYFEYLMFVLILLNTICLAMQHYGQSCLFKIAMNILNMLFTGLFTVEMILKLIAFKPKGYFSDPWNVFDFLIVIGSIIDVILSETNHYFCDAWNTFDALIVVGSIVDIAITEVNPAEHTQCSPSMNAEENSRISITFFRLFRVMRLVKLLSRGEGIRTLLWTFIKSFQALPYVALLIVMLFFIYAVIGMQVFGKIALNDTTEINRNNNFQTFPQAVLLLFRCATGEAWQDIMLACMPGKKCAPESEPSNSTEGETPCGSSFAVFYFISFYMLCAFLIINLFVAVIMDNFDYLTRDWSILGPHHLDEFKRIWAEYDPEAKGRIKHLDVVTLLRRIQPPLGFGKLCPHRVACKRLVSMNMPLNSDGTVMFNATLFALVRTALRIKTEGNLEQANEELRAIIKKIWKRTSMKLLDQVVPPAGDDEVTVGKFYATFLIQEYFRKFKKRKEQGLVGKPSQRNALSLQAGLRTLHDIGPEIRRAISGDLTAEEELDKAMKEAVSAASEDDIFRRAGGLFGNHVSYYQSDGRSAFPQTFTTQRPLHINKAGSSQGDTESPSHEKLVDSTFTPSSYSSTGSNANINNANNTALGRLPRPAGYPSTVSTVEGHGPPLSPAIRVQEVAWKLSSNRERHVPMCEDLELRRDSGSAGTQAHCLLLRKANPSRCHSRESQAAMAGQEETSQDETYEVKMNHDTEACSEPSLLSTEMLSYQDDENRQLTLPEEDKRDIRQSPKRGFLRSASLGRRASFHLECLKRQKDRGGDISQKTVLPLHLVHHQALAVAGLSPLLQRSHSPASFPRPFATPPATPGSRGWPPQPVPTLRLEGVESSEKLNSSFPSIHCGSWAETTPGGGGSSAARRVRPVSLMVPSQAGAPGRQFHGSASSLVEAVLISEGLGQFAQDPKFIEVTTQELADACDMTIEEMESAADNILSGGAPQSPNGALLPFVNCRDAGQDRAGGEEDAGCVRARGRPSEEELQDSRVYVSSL
- Method notes: Inhibition of Calcium Channel L-Type, Benzothiazepine at 10 µM in the Eurofins-Panlabs radioligand binding assay (Eurofins_assay_214510)
- Set-up: ligand concentration 2 nM, non-specific ligand with concentration 10 µM Diltiazem, incubation time 3h, incubation temperature 4 °C
- Assay setup: male, Wistar, rat, rat whole brain preparation, probe [3H] Diltiazem; compound concentration 10 uM; target entry is the homologue from another species
Measured attribute: inhibition at 3 h, 10 µM

// field: inhibition at 3 h, 10 µM; key: `O=C(O)[C@H]1[C@H](Cn2nnc3ccccc3c2=O)CC[C@@H]1C(=O)c1ccc(OCCC2CCOCC2)cc1` ; value = -9% (not active)

====

- System: voltage-gated sodium channel, site 2 (Rattus norvegicus, UniProt F1LQQ7+O08562+O88420+O88457+P04774+P04775+P08104+P15389+P15390+Q62968)
- Method notes: Inhibition of Sodium Channel, Site 2 at 10 µM in the Eurofins-Panlabs radioligand binding assay (Eurofins_assay_279510)
- Type: protein assay
- Design: ligand concentration 5 nM, non-specific ligand with concentration 100 µM Veratridine, incubation time 60 min, incubation temperature 37 °C
- Assay setup: male, Wistar, rat whole brain (except cerebellum) membranes, probe [3H] Batrachotoxinin, compound concentration 10 uM
Measured attribute: inhibition at 60 min, 10 µM

Recorded inhibition at 60 min, 10 µM (molecule `O=C(O)[C@H]1[C@H](Cn2nnc3ccccc3c2=O)CC[C@@H]1C(=O)c1ccc(OCCC2CCOCC2)cc1` ): -1% (not active)

Measured values drawn from ChEMBL document CHEMBL4507264 for this set.
